Listed compounds paired with reported Potency
Test description: Confirmatory screen NINDS Rhodamine qHTS for Zika virus inhibitors (AID 1347161); also: potency is read from the fitted curve at half-maximal effect; nearly all actives have a fitted effect of over 60% in size
Conditions used: purified enzyme assay, Rhodamine110 substrate fluorescence, 15 min; series mostly up to 114 µM
Results filed as inconclusive are left out. Calls of active or inactive are those of the source. Calls follow the shape of the dose curve; as a rule, active = well fitted inhibition curve with a large enough effect; inconclusive = small, poorly fitted or top-dose-only effect; inactive = no such curve, though single readings can be large or run the other way.

Compound | Potency
O=C(O)c1cccc(-c2ccc(-c3cn(C(=O)N4CCCCC4Cc4ccccc4)nn3)cc2)c1 (centres undefined) | 3.5 µM (active)
N#Cc1ccc(N2N=C3c4ccc(C(=O)O)cc4CC[C@@H]3[C@@H]2C2CCCC2)cc1Cl | 1.75 µM (active)
O=C(Nc1cc(C(F)(F)F)cc(C(F)(F)F)c1)c1cnc(Cl)nc1C(F)(F)F | 44.1 µM (active)
O=C(Nc1ccc(-c2ccc(Cl)c(Cl)c2)cc1)C1=C(O)c2ccccc2S(=O)(=O)N1 | 2.48 µM (active)

* * *

System: Tov-21-G
Test description: Primary qHTS to identify gynecologic anti-cancer compounds using libraries of approved drugs and bioactive compounds (AID 1345084); also: nearly all actives have a fitted effect of over 55% in size
Conditions used: Gynecologic cancer cell panel viability, ATPlite luminescence, 48 h; series mostly up to 57.5 µM
Records with an inconclusive call do not appear. The source made the active and inactive calls. Calls come from the whole dose curve; as a rule, active = well fitted cell-killing curve with a large enough effect; inconclusive = small, poorly fitted or top-dose-only effect, or effect the other way; inactive = flat fitted curve, though single readings scatter.
Possible outcomes: active, inactive

Compound | Assigned label
CS(=O)(=O)Nc1ccc2oc3c(OC(F)F)ccc(C(=O)Nc4c(Cl)cncc4Cl)c3c2c1 | inactive
CC1CCCC(O)CCC/C=C/c2cc(OS(=O)(=O)O)cc(O)c2C(=O)O1 (configuration not stated) | inactive
C=C[C@@]1(C)C=C2C(=O)C(O)=C3[C@](C)(C(=O)O)CC[C@@H]4C[C@]34[C@]2(O)C(=O)C1 | active
CCN1C(C)(C)CC(Oc2ccc(C(=O)Nc3ccc(NC(=O)Nc4cc(C(C)(C)C)on4)cc3)nc2)CC1(C)C | inactive
C=C1C(=O)OC2/C=C(\C)CC/C=C(\C)CC(OC(C)=O)C12 (configuration not stated) | inactive
COC1CC/C=C(\C)C(=O)Nc2cc(O)cc(c2)CC(C)CC(OC)C(O)C(C)/C=C(\C)C1OC(N)=O (configuration not stated) | active
CCc1cc(C(N)=O)ccc1-n1nc(C(C)C)c2c(-n3cnc(-c4cnn(C)c4)c3)ccnc21 | active
CC(NC(=O)Cc1cc(F)cc(F)c1)C(=O)NC1C(=O)N(C)c2ccccc2-c2ccccc21 (configuration not stated) | inactive
CC(C)C[C@H](CO)Nc1nc(S[C@@H](C)c2ccccc2)nc2nc(N)sc12 | inactive
CC(=O)NC(C)c1cnc(-c2cnc(Oc3ccc(OC(C)C)cc3)s2)s1 (configuration not stated) | inactive
O=S(=O)(NCc1cccc2ccccc12)c1cc(Cl)c(Oc2cccc(N3CCNCC3)c2)s1 | inactive
Cc1nc(Nc2ccc(F)cc2)nc(N2CCc3ccccc3C2C)c1C (configuration not stated) | inactive

* * *

System: OV90
Test description: Primary qHTS to identify gynecologic anti-cancer compounds using libraries of approved drugs and bioactive compounds (AID 1345084); also: nearly all actives have a fitted effect of over 55% in size
Conditions used: Gynecologic cancer cell panel viability, ATPlite luminescence, 48 h; series mostly up to 57.5 µM
Inconclusive results are not listed. Active and inactive are the calls of the source. Calls come from the whole dose curve; as a rule, active = well fitted cell-killing curve with a large enough effect; inconclusive = small, poorly fitted or top-dose-only effect, or effect the other way; inactive = flat fitted curve, though single readings scatter.
Possible outcomes: active, inactive

Molecule | Assigned label
C[C@@H](c1ccc2nccn2c1)n1nnc2ncc(-c3cnn(C)c3)nc21 | inactive
COc1cc2c(c(OC)c1CC=C(C)C)C[C@H](c1ccc(O)c(CC=C(C)C)c1O)CO2 | inactive
CN1CCN(c2ccc(OC(F)(F)F)c(Nc3ncc4c(n3)-c3c(c(C(N)=O)nn3CCO)CC4)c2)CC1 | inactive
O=C(N[C@@H]1CCCc2c1cnn2-c1ccc(F)cc1F)c1ccccn1 | inactive
CC(=O)C1(C)CCC2C3C=C(C)C4=CC(=O)CCC4(C)C3CCC21C (centres undefined) | inactive
N#Cc1ccc(COc2ccc(-c3cccc4nc(NC(=O)C5CC5)nn34)cc2)cn1 | inactive
O=C(NCCCN1CCOCC1)c1cnn2c(-c3ccccc3)cc(-c3ccccc3)nc12 | inactive
COc1cccc(-c2cn(-c3ccc(CCN4CCC(O)CC4)cc3)c3ncnc(N)c23)c1 | active
CC(C)NC(=O)COc1cccc(-c2nc(Nc3ccc4[nH]ncc4c3)c3ccccc3n2)c1 | inactive
CCOC(=O)c1cnn(-c2ccccc2)c1NC(=O)c1cc2nc(-c3ccco3)cc(C(F)(F)Cl)n2n1 | inactive
COc1ccc(C(=O)O[C@H]2C=COC=C3C=C4C(=O)N(C)C(=S)C(=O)N4[C@@H]32)cc1Oc1cc(C=O)ccc1O | inactive
COc1cc(C(=O)NCC2(N(C)C)CCCC2)cc(OC)c1OCc1ccccc1 | inactive
CC(C)(F)CC(NC(c1ccc(-c2ccc(S(C)(=O)=O)cc2)cc1)C(F)(F)F)C(=O)NC1(C#N)CC1 (centres undefined) | inactive
CC(/C=C/C(=O)NO)=C\[C@@H](C)C(=O)c1ccc(N(C)C)cc1 | active

* * *

Test description: P-glycoprotein substrates identified in KB-8-5-11 adenocarcinoma cell line, qHTS therapeutic library screen (AID 1346987); also: nearly all actives have a fitted effect of over 65% in size
Conditions used: KB-8-5-11 (P-gp overexpressing) viability, CellTiter-Glo, 72 h; series mostly up to 44.5 µM
Inconclusive results are not listed. The source made the active and inactive calls. Calls follow the shape of the dose curve; as a rule, active = well fitted inhibition curve with a large enough effect; inconclusive = small, poorly fitted or top-dose-only effect; inactive = flat fitted curve, though single readings scatter.
Possible outcomes: active, inactive

Substance smiles | Assigned label
C=C[C@@]1(C)C=C2C(=O)C(O)=C3[C@](C)(C(=O)O)CC[C@@H]4C[C@]34[C@]2(O)C(=O)C1 | active
Cn1c(CO)c(-c2ccccc2)c2cc([N+](=O)[O-])ccc21 | inactive
CC(C)c1cccc(C(C)C)c1NC(=O)Nc1ccc(Sc2ccc([N+](=O)[O-])cc2)cc1 | active

* * *

Test description: qHTS to identify inhibitors of the type 1 interferon - major histocompatibility complex class I in skeletal muscle: primary screen against the NCATS Mechanism Interrogation Plate v5.0 (MIPE) Libary (AID 1347411); also: nearly all actives have a fitted effect of over 65% in size
Conditions used: iHSKM cells + IFN-b, HiBiT-tagged MHC-I luminescence, 24 h; series mostly up to 45.8 µM
Results filed as inconclusive are left out. Activity calls are given as the source filed them. Calls follow the shape of the dose curve; as a rule, active = well fitted inhibition curve with a large enough effect; inconclusive = small, poorly fitted or top-dose-only effect; inactive = no such curve, though single readings can be large or run the other way.
Possible outcomes: Y (active), N (inactive)

Compound | Assigned label
CCCC(CCC)C(=O)Nc1ccn([C@@H]2O[C@H](CO)[C@@H](O)C2(F)F)c(=O)n1 | N
NC(=O)c1cnc(N[C@@H]2CCCC[C@@H]2N)nc1Nc1cccc(-n2nccn2)c1 | Y
Cc1nc(NC(=O)N2CCCC2C(N)=O)sc1-c1ccnc(C(C)(C)C(F)(F)F)c1 (configuration not stated) | Y
NC(=O)c1ccccc1Nc1ccnc(Nc2cccc(O)c2)n1 | Y
O=C(Cc1cccc(OC(F)(F)F)c1)Nc1ccc(CCCCc2nnc(NC(=O)Cc3ccccn3)s2)nn1 | N
CN1C(=O)c2sccc2N(C)c2nc(Nc3ccc(S(N)(=O)=O)cc3)ncc21 | Y
C1=C/COCc2cc(ccc2OCCN2CCCC2)Nc2nccc(n2)-c2cccc(c2)COC/1 | Y

* * *

Test description: Primary qHTS for inhibitors of nuclear receptor binding SET domain protein 2 (NSD2) in an isogenic RCH-ACV NSD2 p.E1099K mutant (9B) (AID 1645876); also: nearly all actives have a fitted effect of over 70% in size
Conditions used: RCH-ACV (leukaemia line) NSD2 E1099K (9B) viability, CellTiter-Glo, 72 h; series mostly up to 44.9 µM
Records with an inconclusive call do not appear. Calls of active or inactive are those of the source. Calls come from the whole dose curve; as a rule, active = well fitted inhibition curve with a large enough effect; inconclusive = small, poorly fitted or top-dose-only effect; inactive = flat fitted curve, though single readings scatter.
Possible outcomes: 1.0 (active), 0.0 (inactive)

Compound | Assigned label
COc1ccc(CCc2nc3c(C)c(-c4c(C)noc4C)c(C)cc3n2CCN2CCOCC2)cc1 | 1.0
O=C(NCCCn1ccnc1)c1cc(-c2ccco2)on1 | 1.0
CC(=O)O[C@H]1CC(C)(C)CC2[C@]13CO[C@@]21CCC2[C@@]4(C)CC[C@H](O[C@@H]5OC[C@H](O[C@@H]6O[C@H](CO)[C@@H](O)[C@H](O)[C@H]6O[C@@H]6OC[C@@H](O[C@@H]7O[C@H](CO)[C@@H](O)[C@H](O)[C@H]7O)[C@H](O)[C@H]6O)[C@H](O)[C@H]5O[C@@H]5O[C@H](CO)[C@@H](O)[C@H](O)[C@H]5O)[C@@](C)(CO)C4CC[C@@]2(C)[C@]1(C)C[C@H]3O (some centres undefined) | 1.0
COc1cc(/C=C2\CCCN([C@@H](C)c3ccc(F)cc3)C2=O)ccc1-n1cnc(C)c1 | 1.0
COc1ccc(-n2c(SCCCN3C(=O)c4cccc5cccc(c45)C3=O)nnc2-c2ccncc2)cc1 | 0.0
CC(=O)O[C@@H]1C2=C(O)C(=O)[C@](C)(OC(C)=O)C(=O)C2=CO[C@@]12O[C@@H](C)CC[C@H]2OC(C)=O | 0.0
COc1cc(N2CCC(O)CC2)ccc1Nc1nc(Nc2ccccc2S(=O)(=O)C(C)C)c2[nH]cnc2n1 | 1.0
Cn1ncnc1[C@@H]1c2n[nH]c(=O)c3cc(F)cc(c23)N[C@H]1c1ccc(F)cc1 | 1.0
CC(=O)O[C@@H]1CC[C@@]2(C)[C@H](CC[C@@H]3[C@@H]2C[C@H](OC(C)=O)[C@]2(C)[C@@H](C(C)=O)CC[C@@H]32)C1 | 1.0
CC(C)c1noc(C2CCN(c3ncnc(Nc4ccc(S(C)(=O)=O)cc4F)c3[N+](=O)[O-])CC2)n1 | 0.0
CN(C)C(=O)NC1(c2ccccc2)CCN(CCC[C@]2(c3ccc(Cl)c(Cl)c3)CCCN(C(=O)c3ccccc3)C2)CC1 | 1.0
Cc1ccc(NC(=O)N2CCN(c3nc(N)nc4sc(-c5cccnc5)nc34)CC2)cc1 | 1.0
C1=Cc2ccccc2C(=C2CCN(CCCCc3nn[nH]n3)CC2)c2ccccc21 | 0.0
CC(=O)NC(C)c1cnc(-c2cnc(Oc3ccc(OC(C)C)cc3)s2)s1 (centres undefined) | 1.0
CCc1cc(C(N)=O)ccc1-n1nc(C(C)C)c2c(-n3cnc(-c4cnn(C)c4)c3)ccnc21 | 1.0
O=S(=O)(Cc1ccccc1)Nc1ccc(-c2ccc3c(cnn3-c3ccc(F)cc3)c2)c(C(F)(F)F)c1 | 1.0
C=C1CC2OC(=O)C(=C)C2C(OC(=O)/C(C)=C\C)CC2(C)OC1=CC2=O (centres undefined) | 1.0
O=c1[nH]c([C@@H]2CCCN2)nc2c1oc1ccc(Cl)cc12 | 1.0
CCCCCCCCn1cc(CN(CC)CC)c2cc(-c3cnc(N)nc3)ccc21 | 1.0
